tested on: CLZ3 (HCA2 human fibroblast dual HR-NHEJ reporter); experiment: HR repair efficiency (tdTomato+ cells) relative to control (log10 fold); higher = more homologous recombination; conditions: 5 µM; doxycycline 0.5 ug/mL;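 also: compound given one day before doxycycline, which switches on I-SceI endonuclease expression to create double-strand breaks within the integrated reporter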
Is HR repair efficiency (log10) at least 0.07? Then y. If not, n.

COMPOUND	CLASS
C[C@@H]1CC[C@@]2(OC1)O[C@H]1C[C@H]3[C@@H]4CC=C5C[C@@H](O[C@@H]6O[C@H](CO)[C@@H](O)[C@H](O[C@@H]7O[C@H](CO)[C@@H](O)[C@H](O)[C@H]7O)[C@H]6O[C@@H]6O[C@@H](C)[C@H](O)[C@@H](O)[C@H]6O)CC[C@]5(C)[C@H]4CC[C@]3(C)[C@H]1[C@@H]2C [Gracillin]	n

## Task Determine whether measured HR repair efficiency (log10) meets or exceeds 0.07 for C=C[C@@H]1[C@@H](O[C@@H]2O[C@H](CO)[C@@H](O)[C@H](O)[C@H]2O)OC=C(C(=O)OC)[C@@H]1CCOC(=O)c1cc(O)c(O)c(O)c1 [Cornuside I]
## Result n

## Task Determine whether measured HR repair efficiency (log10) meets or exceeds 0.07 for C[C@H]1O[C@H](O[C@@H]2[C@@H](O)[C@H](OCCc3ccc(O)c(O)c3)O[C@H](CO[C@H]3OCC(O)(CO)[C@@H]3O)[C@H]2OC(=O)/C=C/c2ccc(O)c(O)c2)[C@@H](O)[C@@H](O)[C@@H]1O (stereo partly specified) [Forsythoside B]
## Result y

## Task Determine whether measured HR repair efficiency (log10) meets or exceeds 0.07 for COc1cc(CCC(C)=O)ccc1O [Zingerone]
## Result y

## Task Determine whether measured HR repair efficiency (log10) meets or exceeds 0.07 for CCCCCCCCCCCCCCCC(=O)O [Palmitic Acid]
## Result n

## Task Determine whether measured HR repair efficiency (log10) meets or exceeds 0.07 for COc1ccc2c(OC)c3ccoc3nc2c1OC [Skimmianine]
## Result n
